- Tested on: DIPGX37 (H3.3 K27M diffuse intrinsic pontine glioma line)
- Assay name: area under dose-response curve of % growth inhibition (log2 RLU vs DMSO / staurosporine), 1e-11 to 1e-4 M (% x log10 M); higher = more growth inhibition
Our labelling divides records by area under dose-response curve into ranges: group 1: < 40; group 2: ≥ 40 and < 80; group 3: ≥ 80

Record excerpt, results attached:
Compound: O=C(CCCCCCNC(=O)c1cnc(N(c2ccccc2)c2ccccc2)nc1)NO
Group: group 2
//
Compound: c1ccc(-c2ccc(C(c3ccccc3)n3ccnc3)cc2)cc1 (stereo unspecified)
Group: group 1
//
Compound: CCCCC(CC)CNC(=N)NC(=N)NCCCCCCNC(=N)NC(=N)NCC(CC)CCCC (stereo unspecified)
Group: group 3
//
Compound: CCCSc1ccc2[nH]c(NC(=O)OC)nc2c1
Group: group 2
//
Compound: CNC(=O)c1cc(Oc2ccc(NC(=O)Nc3ccc(Cl)c(C(F)(F)F)c3)c(F)c2)ccn1
Group: group 2
//
Compound: CCCCOc1ccc(C(=O)CCN2CCCCC2)cc1
Group: group 3
//
Compound: C=CCNC1=C2C[C@@H](C)C[C@H](OC)[C@H](O)[C@@H](C)/C=C(\C)[C@H](OC(N)=O)[C@@H](OC)/C=C\C=C(/C)C(=O)NC(=CC1=O)C2=O
Group: group 3
//
Compound: Cc1nc2c([nH]1)-c1ccccc1N(C(=O)c1ccc(NC(=O)c3ccccc3-c3ccccc3)cc1)CC2
Group: group 1

# bin label for "Cc1nc(-c2cccnc2)sc1C(=O)Nc1ccccc1-c1cn2c(CN3CCOCC3)csc2n1"
group 3

# bin label for "C[C@@H]1CC[C@H]2[C@@H](C)C(=O)O[C@@H]3O[C@@]4(C)CC[C@@H]1[C@]32OO4"
group 2

# bin label for "COc1cc(OC)c2c(=O)[nH]c(-c3cc(C)c(OCCO)c(C)c3)nc2c1"
group 1

# bin label for "CN(C)c1ccc2nc3ccc(=[N+](C)C)cc-3sc2c1"
group 2

# bin label for "Fc1ccc(-c2c3cccc(C(F)(F)F)c3nn2Cc2ccc(F)cc2Cl)cc1"
group 2

# bin label for "CN(C)/N=N/c1[nH]cnc1C(N)=O"
group 1

# bin label for "COc1ccc(-c2nc(N3CCOCC3)c3sc(CN(C)c4ncc(C(=O)NO)cn4)cc3n2)cn1"
group 3

# bin label for "COc1cc(Nc2ncc3c(n2)-c2ccc(Cl)cc2C(c2c(F)cccc2OC)=NC3)ccc1C(=O)O"
group 2

# bin label for "CCN(c1cc(-c2ccc(CN3CCOCC3)cc2)cc(C(=O)NCc2c(C)cc(C)[nH]c2=O)c1C)C1CCOCC1"
group 1

# bin label for "Nc1nc2[nH]cc(CCc3ccc(C(=O)N[C@@H](CCC(=O)O)C(=O)O)cc3)c2c(=O)[nH]1"
group 1

# bin label for CN(N=O)C(=O)N[C@H]1C(O)O[C@H](CO)[C@@H](O)[C@@H]1O (mixture of isomers)
group 1

# bin label for "COc1ccccc1C(=O)Nc1cc2c(cc1N1CCCCC1)n(C)c(=O)n2C"
group 2

# bin label for "CN1[C@@H]2CC[C@H]1C[C@@H](OC(=O)c1c[nH]c3ccccc13)C2"
group 1

# bin label for "CC[C@@]1(O)C[C@H](O[C@H]2C[C@H](N(C)C)[C@H](O[C@H]3C[C@H](O)[C@H](O[C@H]4CCC(=O)[C@H](C)O4)[C@H](C)O3)[C@H](C)O2)c2c(cc3c(c2O)C(=O)c2c(O)cccc2C3=O)[C@H]1C(=O)OC"
group 3

# bin label for "Nc1nc(=O)n([C@H]2C[C@H](O)[C@@H](CO)O2)cc1F"
group 1
